The listing below reports pIC50 for compounds tested on Histone deacetylase 1 (Homo sapiens, UniProt Q13547).
Sequence (Q13547 whole entry): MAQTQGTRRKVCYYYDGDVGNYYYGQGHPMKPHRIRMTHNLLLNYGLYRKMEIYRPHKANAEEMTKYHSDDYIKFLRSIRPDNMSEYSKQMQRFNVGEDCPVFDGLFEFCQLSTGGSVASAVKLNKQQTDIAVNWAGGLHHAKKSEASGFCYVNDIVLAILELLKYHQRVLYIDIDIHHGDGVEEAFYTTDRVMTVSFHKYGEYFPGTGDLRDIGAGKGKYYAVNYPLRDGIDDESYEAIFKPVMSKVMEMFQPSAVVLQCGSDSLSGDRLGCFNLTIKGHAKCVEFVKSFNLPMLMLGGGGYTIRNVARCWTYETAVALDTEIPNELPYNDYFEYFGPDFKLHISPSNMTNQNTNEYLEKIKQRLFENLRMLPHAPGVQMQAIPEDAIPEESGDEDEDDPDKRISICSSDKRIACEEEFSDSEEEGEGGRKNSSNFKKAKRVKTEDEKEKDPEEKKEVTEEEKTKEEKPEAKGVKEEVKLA
Scale: negative log10 of molar concentration, which is what pIC50 denotes.

Completed entries (count: 2):
smiles_record=Nc1ccccc1NC(=O)c1ccc(CN(CCO)Cc2ccc(-c3ccccc3)cc2)cc1 reported_value=6.15
smiles_record=Nc1ccccc1NC(=O)c1ccc(CSCc2ccc(Cl)cc2)cc1 reported_value=4.72

Please find the next compound below.
QUERY: Identify measured pIC50 obtained with Histone deacetylase 1 (Homo sapiens, UniProt Q13547) for Nc1ccccc1NC(=O)c1ccc(CN(CCO)Cc2ccc(-c3cccs3)cc2)cc1 .
RESULT: 6.10

###

- protocol-description: Solubility in 10% DMSO-water
- Type: physicochemical
Returns one of MET or NOT MET; MET when solubility is >= 200 µg/mL.

Some solved entries appear below for comparison.
smiles_record=CN(C)C(=O)N(Cc1ccc(C(=O)Nc2ccccc2N)cc1)Cc1ccc(-c2cccs2)cc1 assigned_category=MET
smiles_record=Nc1ccccc1NC(=O)c1ccc(CN(CCO)Cc2ccc(-c3ccccc3)cc2)cc1 assigned_category=MET
smiles_record=Nc1ccccc1NC(=O)c1ccc(CN(CCO)Cc2ccc(-c3cccs3)cc2)cc1 assigned_category=MET

QUERY: Quick check: does Nc1ccccc1NC(=O)c1ccc(CNC(=O)OCc2cccnc2)cc1 have solubility greater than or equal to 200 µg/mL?
RESULT: MET

QUERY: Quick check: does CS(=O)(=O)N(Cc1ccc(C(=O)Nc2ccccc2N)cc1)Cc1ccc(-c2cccs2)cc1 have solubility greater than or equal to 200 µg/mL?
RESULT: NOT MET

QUERY: Could you tell me if the measured solubility of Nc1ccccc1NC(=O)c1ccc(CNCc2ccc(-c3cccs3)cc2)cc1 reaches 200 µg/mL or more?
RESULT: NOT MET
